Numbers sourced from a melting point compilation (Tetko et al.; mined from patent text by program, amines drawn as free bases though some values may be those of a salt).

ENDPOINT: melting point

Guide cases for melting point, answers given:
> print(dat)
                                   molecule  reported.measurement
1  O=C(Nc1ccc(OCCN2CCOCC2)c2ccccc12)c1cc(F)cc(OC2CCOCC2)c1           75 to 77 °C
2  CC(=O)NCCCCc1ccc(C(=O)CC(C)C#N)cc1 (stereo not given)           89 to 90 °C
3  CCC(=CC(CNC(=O)c1nc[nH]c1C)=NO)C(C)[N+](=O)[O-] (stereo not given)         125 to 127 °C
4     COc1ccc(-n2nc(CBr)cc2-c2ccc(C)cc2)cc1         119 to 121 °C
5  CC(C)(C)OC(=O)N1CC(CO)c2c1cc(OCc1ccccc1)c1ncccc21 (stereo not given)         170 to 171 °C

Value sought for every listed molecule: melting point.
1. CC(=O)N[C@H]1CCCc2ccccc21
2. CC(=O)OCC12CCC(OC(C)=O)CC1CC=C1C2CCC2(C)C(OC(=O)C(C)(C)C)CCC12O (stereo not given)
3. S=c1c2cccnc2c(-c2cccc(Cl)c2)nn1Cc1ccccc1
4. O=C1c2ccc(Cl)cc2CN2C(=NO)CCC12 (stereo not given)
5. Cc1sc(Nc2cccc(I)n2)nc1-c1cn[nH]c1

1: 153 to 155 °C; 2: 141 to 142 °C; 3: 132 °C; 4: 249 to 252 °C; 5: > 260 °C

====

Can you tell me melting point for the items I'm about to list?

Value sought for every listed compound: melting point.
1. Cc1nc(Oc2ccc(F)cc2)cc(Oc2ccc(F)cc2)n1
2. NS(=O)(=O)c1cccc(NC(=O)c2cnn3c(C(F)F)cc(-c4ccc(OC(F)(F)F)cc4)nc23)c1
3. C=C(C)COc1ccc(C(=O)C=Cc2ccc(OC)cc2OC)c(O)c1

93 to 97 °C
231 °C
106 to 107 °C

Value sought for every listed compound: melting point.
1. CCSc1ccc(-c2nccs2)c2c1C(=O)CC(C)C2 (configuration not stated)
2. O=c1[nH]c2cc(Br)c(F)c([N+](=O)[O-])c2[nH]c1=O
3. COc1cc(NC(=O)n2cc(F)c(=O)[nH]c2=O)cc(OC)c1OC
4. COc1ccc2c(c1Br)CCC=C2C#N

1: 117 to 118 °C; 2: 316 to 321 °C; 3: 168 to 170 °C; 4: 108 to 109 °C

Value sought for every listed compound: melting point.
1. COc1ccc2c(c1)CNCC(=O)N2
2. CC(O)(CN)c1ccc(Oc2ccc3c(c2)S(=O)(=O)NC2CCCN32)cc1 (configuration not stated)
3. O=C(c1ccccc1)c1cnn2c(-c3cccc(N4CCCC4=O)c3)ccnc12
4. CCCCCCCCCCCCCC1CC(=O)NCCCNCCCCN1 (configuration not stated)
5. Cc1cccc(C(C)C)c1NC(=O)Nc1c(-c2ccccc2F)c2cc(Cl)ccc2oc1=O
6. O=C(CI)NCCSC=CSCCNC(=O)CI
7. Cc1ccc(Sc2nc(Cl)c(C#N)cc2F)cc1

148 °C
76 to 78 °C
173 to 174 °C
72 to 73 °C
217 to 218 °C
129 °C
124 to 125 °C

Value sought for every listed compound: melting point.
1. CC(C)C(=O)c1ccc2c(c1)CC(N1C(=O)c3ccccc3C1=O)C2 (configuration not stated)
2. CC(C)(C)c1cc(C=C2SC(=S)NC2=O)cc(C(C)(C)C)c1O
3. COc1ccc2c(c1)CCC1CCN(C)C(=O)C(CC(C)NC(C)C)=C21 (configuration not stated)
4. CCOC(=O)C(CC)=C(C)NC(=O)Nc1cc(OC(C)C)c(Cl)cc1F

["138 to 140 °C", "260 °C", "118 to 120 °C", "112 to 114 °C"]

Value sought for every listed compound: melting point.
1. Cc1csc(C2=CCN(CCCC(=O)c3ccc(F)cc3)CC2)n1
2. O=c1ccc2cccc(-c3cccc4ccccc34)c2[nH]1
3. CCCOc1ncc(I)cc1C(=O)Nc1c(CC)nn(CCN2CCOCC2)c1C(N)=O
4. CC(=O)Nc1ccc2[nH]cc(CC#N)c2c1

1. 81 to 82 °C
2. 198 to 199 °C
3. 180 °C
4. 172 to 175 °C

====

ENDPOINT: melting point

Guide cases for melting point, answers given:
> print(dat)
                                   compound  reported.measurement
1  COc1ccc(CC(=O)NC(NC(Cc2ccccc2C)=NC#N)C(C)(C)C)cc1OC (stereo not given)         153 to 155 °C
2                Cc1ccc2[nH]c3ccc(C)cc3c2c1         218 to 221 °C
3  CCOC(=O)C1=C(C)NC(COC(C)=O)=C(C(=O)OCC)C1c1ccccc1 (stereo not given)         104 to 106 °C

Value sought for every listed compound: melting point.
1. CNS(=O)(=O)Cc1ccc(NN=CCSc2ccccc2)cc1
2. CC1C(C)(C)c2ccc(C(=O)CCC(=O)O)cc2C1(C)C (stereo not given)
3. CCCCOc1ccc(C=CCCCC(=O)O)cc1
4. CS(=O)(=O)c1ccc(-c2cc(C#N)c(=O)[nH]c2-c2ccc(F)cc2)cc1
5. O=C1CCC(N2Cc3c(OCc4ccc(CN5CCC(c6ccncc6)CC5)cc4)cccc3C2=O)C(=O)N1 (stereo not given)
6. Oc1ccc2c(c1)COc1c-2cc2ccc(O)cc2c1-c1ccccc1
7. Cc1c(NC(=O)c2cc3c(s2)CCCC3)cccc1-c1cc(N)c(=O)n(C)c1

110 to 112 °C
161 °C
56 to 57 °C
294 to 296 °C
198 to 200 °C
225 to 227 °C
210 to 211 °C

====

Can you tell me melting point for the items I'm about to list?

Guide cases for melting point, answers given:
> print(dat)
                                   molecule       endpoint  reported.measurement
1  Cc1cc(C2=Nn3cnnc3SC2c2ccc(F)cc2)nc2c1OCC(=O)N2 (stereo unspecified)  melting point         256 to 257 °C
2  Cc1ccccc1CC(=NC#N)NC(NC(=O)Cc1ccc2c(c1)OCO2)C(C)(C)C (stereo unspecified)  melting point         167 to 169 °C
3                              N#Cc1ccccc1F  melting point          98 to 100 °C

Value sought for every listed molecule: melting point.
1. COc1ccc(-n2nc(Sc3ccccc3C)c(C)c(C#N)c2=O)cc1
2. Cc1ccc(-n2c(-c3ccccc3)c(Br)c(Br)c2-c2ccccc2)cc1
3. Cc1cccc(-c2[nH]c(C(C)C)nc2-c2ccc(F)c(-c3cc[nH]c3)c2)n1
4. COc1ccc2[nH]cc(CC3=CCCN(CCCC(O)c4ccc(F)cc4)C3)c2c1 (stereo unspecified)
5. Cc1c2ccccc2cc2[nH]c(S)nc12
6. O=c1nc(N2CCN(c3ccccc3F)CC2)sc2c([N+](=O)[O-])cc(C(F)(F)F)cc12
7. CSC1=NC(C)(C)CCC(C)(C)N1

["144 to 146 °C", "227 to 228 °C", "106 to 110 °C", "160 to 170 °C", "> 300 °C", "164 to 168 °C", "200 to 205 °C"]

====

Can you tell me melting point for the items I'm about to list?

> print(dat)
                                    compound       endpoint  reported.measurement
 1  Cc1ccc(S(=O)C(C(=O)OC(C)(C)C)C(O)c2ccc(Oc3ccccc3)cc2)cc1 (stereo unspecified)  melting point         126 to 128 °C
 2  CC(C)(C)c1cc(C(=O)NCc2ccc3c(Br)c(OC(Cc4ccccc4)C(=O)O)ccc3c2)cc(C(C)(C)C)c1 (stereo unspecified)  melting point         160 to 163 °C
 3  N#CCCNC(=O)c1cccc(-c2ccc3c(c2)C(c2ccc(Cl)cc2Cl)CCO3)c1 (stereo unspecified)  melting point         154 to 155 °C
 4  CCCCNC(=O)OC1c2ccccc2C(=O)N1c1ccc2ccc(Cl)nc2n1 (stereo unspecified)  melting point                152 °C
 5  O=C1c2cc(Cl)c(Cl)cc2CN2C(=NO)CCC12 (stereo unspecified)  melting point         245 to 246 °C
 6               CS(=O)(=O)CCCC1(C(=O)O)CCC1  melting point         113 to 116 °C
 7               CCOC(=O)c1cc2ccccc2[nH]c1=O  melting point         160 to 163 °C
 8  Cn1ncc(C(=O)N2CC(F)C2)c1C(=O)Nc1ccn2nc(N3CCOCC3)nc2c1  melting point         247 to 250 °C
 9    O=C(C=Cc1ccc(NS(=O)(=O)c2ccccc2)cc1)NO  melting point         189 to 191 °C
10  Fc1cc2c(cc1F)CC(n1c(-c3nnn[nH]3)c[nH]c1=S)CC2 (stereo unspecified)  melting point         195 to 212 °C

Value sought for every listed compound: melting point.
1. CC(C)NCCNc1ccc2ncc(Br)n2n1
2. O=C1CCC(O)C(C(c2ccccc2)c2ccccc2)N1 (stereo unspecified)
3. COc1ccc(-c2nc3ccccc3nc2-c2ccc(OC)cc2)cc1
4. CCC1(O)NC(=O)C=C1C (stereo unspecified)
5. CCOC(=NC(=O)Nc1ccc(Cl)cc1)N1Cc2ccccc2-c2ccccc2C1
6. CC(N)C1CCC(C(=O)Nc2ccncc2)CC1 (stereo unspecified)
7. CSc1nc(C)ccc1NC(=O)CCCCCBr

1: 87 to 88 °C; 2: 208 °C; 3: 148 °C; 4: 182 to 186 °C; 5: 154 to 156 °C; 6: 286 to 287 °C; 7: 98 to 99 °C

Value sought for every listed compound: melting point.
1. COC(=O)c1c(C)cccc1[N+](=O)[O-]
2. CC(C)(C)NC(=O)c1nn(-c2ccc(C(F)(F)F)cc2)c2c1C1CCC2CC1
3. N#CNC(=N)CCN1CCOC1=O
4. N#CCCCCCCCn1c(-c2ccccc2)nc(-c2ccccc2)c1-c1ccccc1
5. CCCC1(C(=O)NCc2ccc(N3Cc4ccccc4C3=O)cc2)c2ccccc2-c2ccccc21

44 to 45 °C
174 to 176 °C
137 to 139 °C
93 to 94 °C
96 to 99 °C

Value sought for every listed compound: melting point.
1. CCN(CC)CCCN1CCN(CCN2CCCCC2)C1=C(C#N)C#N
2. COC(=O)NN=C1C(=O)Nc2ccc(C3=NNC(=O)SC3C)cc21 (stereo unspecified)
3. Cc1nn2c(C(F)(F)F)cc(-c3ccc(C(F)(F)F)cc3)nc2c1C#N
4. CCOC(=O)CC(=O)Nc1c(-c2ccccc2)nn2ccccc12
5. CC(C)c1cccc2c1O[C@@H](C(C)C)C(=O)N2
6. OCCc1c2ccccc2c(Br)c2ccccc12
7. CC(Oc1ccc(-c2cccc(NC(N)=O)c2)cc1)C(O)CCc1cccnc1 (stereo unspecified)

["58 to 61 °C", "201 °C", "184 °C", "160 to 161 °C", "151 to 152 °C", "180 to 182 °C", "75 to 76 °C"]

Value sought for every listed compound: melting point.
1. CC(CCOc1c(-c2ccc(S(C)(=O)=O)cc2)cnn(-c2ccc(F)c(F)c2)c1=O)C(F)(F)F (stereo unspecified)
2. Brc1ccc2c3nc4ccccc4[nH]c-3nc2c1
3. CC1(C)C(=O)N(c2ccc(C#N)c(C(F)(F)F)c2)C(=O)N1Cc1ccccc1Br
4. Cc1nnc(C=Cc2ccccc2OC[C@@H](O)CN2CCC(c3ccc4ccccc4c3)CC2)o1
5. COC(=O)c1ccc2c(c1)Sc1ccc(F)cc1C(O)=C2
6. CCN1CCN(C(=O)c2ccc(-c3cc(C(=O)Cc4cccc(C)n4)ccn3)cc2)CC1
7. COC(=O)c1c[nH]c(C=O)c1

["126 to 128 °C", "> 300 °C", "56 to 58 °C", "105 to 106 °C", "85 to 88 °C", "90 °C", "97 to 99 °C"]

Value sought for every listed compound: melting point.
1. Cn1c(=O)[nH]c(=O)c2nc(-c3ccc(/C=C/C(=O)O)cc3)[nH]c21
2. CCOC(=O)c1c(-c2ccccc2Cl)c2cc(CC)sc2n(C)c1=O
3. CN(C)C(=O)NCCNCC(O)COc1ccc(OCCOCC2CC2)cc1 (stereo unspecified)
4. O=C1c2ccccc2C(=O)N1CC(=O)N1c2ccccc2N(Cc2ccccc2)C(=O)C2(Cc3ccccc3)CCCC12 (stereo unspecified)

1. 300 °C
2. 105 to 106 °C
3. 86 °C
4. 214 to 215 °C

Using the record for O=C(c1cccc(CBr)c1)c1cccc(CBr)c1 , state its measured melting point.
147 to 148 °C
